Tested on: SF-268 CNS
Assay: NCI tumour cell line growth inhibition, 48 h; in the data active = GI50 below about 0.43 µM; inactive = the rest
Respond only with the outcome that fits, drawn from true (1) for active, false (0) for inactive

compound: CCCc1ccc(S(=O)(=O)N[C@H]2CC[C@H]3[C@@H]4CCc5cc(O)ccc5[C@H]4CC[C@]23C)cc1
target.system: SF-268 CNS
assigned.label: false (0)

compound: Fc1ccc(Oc2nccc(-c3c(-c4ccc(F)cc4)ncn3C3CCNCC3)n2)cc1
target.system: SF-268 CNS
assigned.label: false (0)

compound: CCN(CC)CCOc1ccc(Nc2ncc3cc(-c4ccc(O)cc4)c(=O)n(C)c3n2)cc1
target.system: SF-268 CNS
assigned.label: false (0)

compound: N=C1c2nc3n(c2C(=O)c2nc4n(c21)CCCC4)CCCC3
target.system: SF-268 CNS
assigned.label: false (0)

I'd appreciate the recorded outcome for C/C=C(\C)C(=O)N[C@H]1[C@@H](OC(C)=O)C[C@]2(C)C3CC[C@@]4(C)C(CC[C@@H]4C(C)N(C)C)C3CCC2[C@H]1O (stereo not given in full) from this test.
false (0)

Let us now turn to "O=C(Nc1ccc(-n2cc(-c3ccncc3)c(-c3ccc(O)c(Cl)c3)n2)cc1)c1cc(Cl)cc(Cl)c1"
false (0)

Let us now turn to CC([C@H]1CCC2C3CCC4C[C@@H](NC=O)CC[C@]4(C)C3CC[C@@]21C)N(C)C (stereo not given in full)
false (0)

Let us now turn to "COC(=O)COc1ccc(/C=C2\N=C(c3ccccc3)N(c3cc(C(F)(F)F)ccc3Cl)C2=O)cc1"
false (0)

Let us now turn to "O=[N+]([O-])c1ccc(-c2nc(N(CCO)CCO)c3ccccc3n2)o1"
true (1)

Let us now turn to O=C(c1cc(F)c(Cl)cc1Cl)N1N=C(c2ccccc2)CC1(O)c1ccccc1 (stereo not given)
false (0)
